The reported measurements were obtained from patent US6903104B2.

system: hepatocellular HA-22T cancer cells; test: In vitro cytotoxicity MTS assay, hepatocellular HA-22T; type: cell-based, human; conditions: 72 hours
quantity-name: pIC50
Answers are plain numbers, as −log10 of the molar value.

- CCc1cc(Cn2cc(C(=O)C(=O)Nc3cc(C)ns3)c3ccccc32)on1: 6.25
- Cc1cc(NC(=O)C(=O)c2cn(Cc3ccc(C#N)cc3)c3ccccc23)sn1: 6.16

List reported pIC50 for each of these molecules:
1. Cc1cc(NC(=O)C(=O)c2cn(Cc3ccc(C#N)cc3)c3ccc(Br)cc23)sn1
2. Cc1cc(NC(=O)C(=O)c2cn(Cc3ccno3)c3ccccc23)sn1

[5.55, 6.42]
